- target-or-system: human Orai1 (human, UniProt Q96D31 1-301)
- Sequence (Q96D31 whole entry): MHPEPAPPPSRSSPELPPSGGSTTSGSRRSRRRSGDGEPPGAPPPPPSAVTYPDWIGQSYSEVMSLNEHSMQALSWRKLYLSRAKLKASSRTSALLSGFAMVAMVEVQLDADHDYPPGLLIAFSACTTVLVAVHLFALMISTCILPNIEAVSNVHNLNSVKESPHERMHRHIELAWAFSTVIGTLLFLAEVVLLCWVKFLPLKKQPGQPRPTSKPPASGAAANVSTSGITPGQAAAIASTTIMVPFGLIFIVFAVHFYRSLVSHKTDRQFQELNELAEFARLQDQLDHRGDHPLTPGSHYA
- procedure-text: cell-based or functional assay
attribute-measured: IC50 IFN-γ, whole blood Donor B, recombinant mAb

binder	experimental-value
mAb 5B1.1 (antibody, human IgG2, lambda, V domains shown, fully human IgG2 lambda, Campaign 2; also called mAb 5Bl1.1) VH: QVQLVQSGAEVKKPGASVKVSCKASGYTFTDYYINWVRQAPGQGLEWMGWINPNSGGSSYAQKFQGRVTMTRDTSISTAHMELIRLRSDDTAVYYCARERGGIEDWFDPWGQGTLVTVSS VL: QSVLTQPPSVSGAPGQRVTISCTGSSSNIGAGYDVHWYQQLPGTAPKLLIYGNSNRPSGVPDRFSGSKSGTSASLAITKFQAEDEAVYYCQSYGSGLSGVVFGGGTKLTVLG	34.8 nM
mAb 5D7.2 (antibody, human IgG2, lambda, V domains shown, fully human IgG2 lambda, Campaign 2, recombinant) VH: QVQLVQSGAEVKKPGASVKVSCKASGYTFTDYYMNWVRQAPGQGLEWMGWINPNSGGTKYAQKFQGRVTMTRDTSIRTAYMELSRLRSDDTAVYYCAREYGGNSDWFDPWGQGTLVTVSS VL: QSVLTQPPSVSGAPGQRVTISCTGSSSNIGAGYDVHWYQQSPGTAPKLLIYGNSNRPSGVPDRFSGSKSGTSASLAITGLQAEDEADYYCQSYDNRLSDSVVIGGGTKLTVQG	1.17 nM
